Tested on: MDA-MB-231
Experiment: Anticancer activity against human MDA-MB-231 cells after 24 hrs by MTT assay
Assay type: functional, cell-based
Settings: MDA-MB-231, 24 h
property_name: IC50 (µM)
Form entry: value (µM) — number only.

For this molecule ( Cc1ccc(S(=O)(=O)N2Cc3ccccc3OC[C@@H]2Cc2ccc(O)cc2)cc1 ), measured IC50 is 30
